Values compiled from ChEMBL document CHEMBL3352227.

# Test system: Staphylococcus epidermidis
# ASSAY_COMMENT: Antibacterial activity against methicillin-sensitive Staphylococcus epidermidis 12-3 after 18 to 24 hrs by standard twofold serial dilution method
# Type: functional
ATTRIBUTE_MEASURED: log10 MIC (log10 of the value in µg/mL)

> print(dat)
                                    compound  numeric.result
 1  CCO/N=C1/CN(c2c(F)cc3c(=O)c(C(=O)O)cn([C@@H]4C[C@@H]4F)c3c2OC)CC1CN (some centres undefined)            0.30
 2  CO/N=C1/CCN(c2cc3c(cc2F)c(=O)c(C(=O)O)cn3[C@@H]2C[C@@H]2F)CC1N (some centres undefined)            0.00
 3  CCO/N=C1/CN(c2nc3c(cc2F)c(=O)c(C(=O)O)cn3[C@@H]2C[C@@H]2F)[C@@H]1CN            0.30
 4  CCO/N=C1/CN(c2cc3c(cc2F)c(=O)c(C(=O)O)cn3[C@@H]2C[C@@H]2F)[C@H]1CN           -0.30
 5  COc1c(N2C[C@@H]3CCCN[C@@H]3C2)c(F)cc2c(=O)c(C(=O)O)cn(C3CC3)c12 [MOXIFLOXACIN]           -0.90
 6  CCO/N=C1/CN(c2nc3c(cc2F)c(=O)c(C(=O)O)cn3[C@@H]2C[C@@H]2F)[C@H]1CN            0.00
 7  CO/N=C1/CCN(c2c(F)cc3c(=O)c(C(=O)O)cn([C@@H]4C[C@@H]4F)c3c2Cl)CC1N (some centres undefined)            0.00
 8  CO/N=C1/CN(c2nc3c(cc2F)c(=O)c(C(=O)O)cn3[C@@H]2C[C@@H]2F)[C@H]1CN           -0.30
 9  CO/N=C1/CN(c2nc3c(cc2F)c(=O)c(C(=O)O)cn3[C@@H]2C[C@@H]2F)CC1CN (some centres undefined)           -0.30
10  CO/N=C1/CN(c2nc3c(cc2F)c(=O)c(C(=O)O)cn3[C@@H]2C[C@@H]2F)[C@@H]1CN           -0.30
11  CO/N=C1/CN(c2cc3c(cc2F)c(=O)c(C(=O)O)cn3[C@@H]2C[C@@H]2F)CC1CN (some centres undefined)           -1.22

* * *

# Tested on: Klebsiella pneumoniae
# ASSAY_COMMENT: Antibacterial activity against Klebsiella pneumoniae 12-1 after 18 to 24 hrs by standard twofold serial dilution method
# Format: functional
# reported MIC; entries follow
ATTRIBUTE_MEASURED: MIC (µg/mL)

> print(dat)
                                   molecule  numeric.result
1  NC[C@H]1/C(=N\OCc2ccccc2)CN1c1cc2c(cc1F)c(=O)c(C(=O)O)cn2[C@@H]1C[C@@H]1F           0.125
2  CO/N=C1/CN(c2nc3c(cc2F)c(=O)c(C(=O)O)cn3[C@@H]2C[C@@H]2F)CC1CN (stereo partly drawn)            0.25
3  NC[C@H]1/C(=N\OCc2ccccc2)CN1c1nc2c(cc1F)c(=O)c(C(=O)O)cn2[C@@H]1C[C@@H]1F             0.5
4  NC[C@@H]1/C(=N\OCc2ccccc2)CN1c1cc2c(cc1F)c(=O)c(C(=O)O)cn2[C@@H]1C[C@@H]1F             0.5
5  CCO/N=C1/CN(c2nc3c(cc2F)c(=O)c(C(=O)O)cn3[C@@H]2C[C@@H]2F)[C@@H]1CN               1
6  CO/N=C1/CN(c2cc3c(cc2F)c(=O)c(C(=O)O)cn3[C@@H]2C[C@@H]2F)CC1CN (stereo partly drawn)            0.25
7  CCO/N=C1/CN(c2cc3c(cc2F)c(=O)c(C(=O)O)cn3[C@@H]2C[C@@H]2F)CC1CN (stereo partly drawn)            0.25
8  COc1c(N2C[C@@H]3CCCN[C@@H]3C2)c(F)cc2c(=O)c(C(=O)O)cn(C3CC3)c12           0.015

* * *

# reported MIC; entries follow
# Test system: Mycobacterium tuberculosis
# ASSAY_COMMENT: Antimycobacterial activity against Mycobacterium tuberculosis H37Rv ATCC 27294 by MABA method
# Assay type: functional
ATTRIBUTE_MEASURED: MIC (µg/mL)

COMPOUND	ATTRIBUTE_MEASURED	READOUT_UNIT	NUMERIC_RESULT
NC[C@@H]1/C(=N\OCc2ccccc2)CN1c1cc2c(cc1F)c(=O)c(C(=O)O)cn2[C@@H]1C[C@@H]1F	MIC	µg/mL	8
CO/N=C1/CN(c2nc3c(cc2F)c(=O)c(C(=O)O)cn3[C@@H]2C[C@@H]2F)CC1CN (some centres undefined)	MIC	µg/mL	0.5
CO/N=C1/CN(c2cc3c(cc2F)c(=O)c(C(=O)O)cn3[C@@H]2C[C@@H]2F)CC1CN (some centres undefined)	MIC	µg/mL	1
CCO/N=C1/CN(c2cc3c(cc2F)c(=O)c(C(=O)O)cn3[C@@H]2C[C@@H]2F)[C@H]1CN	MIC	µg/mL	2
CO/N=C1/CN(c2cc3c(cc2F)c(=O)c(C(=O)O)cn3[C@@H]2C[C@@H]2F)[C@@H]1CN	MIC	µg/mL	1
CO[C@H]1/C=C/O[C@@]2(C)Oc3c(C)c(O)c4c(O)c(c(/C=N/N5CCN(C)CC5)c(O)c4c3C2=O)NC(=O)/C(C)=C\C=C\[C@H](C)[C@H](O)[C@@H](C)[C@@H](O)[C@@H](C)[C@H](OC(C)=O)[C@@H]1C [RIFAMPIN]	MIC	µg/mL	0.05
NC[C@@H]1/C(=N\OCc2ccccc2)CN1c1nc2c(cc1F)c(=O)c(C(=O)O)cn2[C@@H]1C[C@@H]1F	MIC	µg/mL	2
CCO/N=C1/CN(c2cc3c(cc2F)c(=O)c(C(=O)O)cn3[C@@H]2C[C@@H]2F)[C@@H]1CN	MIC	µg/mL	2
NCC1CN(c2nc3c(cc2F)c(=O)c(C(=O)O)cn3[C@@H]2C[C@@H]2F)C/C1=N/OCc1ccccc1 (some centres undefined)	MIC	µg/mL	0.5

* * *

# reported MIC; entries follow
# Test system: Staphylococcus aureus
# ASSAY_COMMENT: Antibacterial activity against methicillin-sensitive Staphylococcus aureus 12-5 after 18 to 24 hrs by standard twofold serial dilution method
# Assay type: functional
ATTRIBUTE_MEASURED: MIC

> print(dat)
                                   molecule       result
1  CCO/N=C1/CN(c2nc3c(cc2F)c(=O)c(C(=O)O)cn3[C@@H]2C[C@@H]2F)CC1CN (stereo partly drawn)  0.015 µg/mL
2  NCC1CN(c2cc3c(cc2F)c(=O)c(C(=O)O)cn3[C@@H]2C[C@@H]2F)C/C1=N/OCc1ccccc1 (stereo partly drawn)   0.06 µg/mL
3  CCO/N=C1/CN(c2cc3c(cc2F)c(=O)c(C(=O)O)cn3[C@@H]2C[C@@H]2F)CC1CN (stereo partly drawn)   0.06 µg/mL

* * *

# Test system: Staphylococcus epidermidis
# ASSAY_COMMENT: Antibacterial activity against methicillin-sensitive Staphylococcus epidermidis 12-3 after 18 to 24 hrs by standard twofold serial dilution method
# Assay type: functional
# reported MIC; entries follow
ATTRIBUTE_MEASURED: MIC

> print(dat)
                                   compound     result
1  CO/N=C1/CCN(c2nc3c(cc2F)c(=O)c(C(=O)O)cn3[C@@H]2C[C@@H]2F)CC1N (stereo partly drawn)  < 8 ng/mL
2  NCC1CN(c2nc3c(cc2F)c(=O)c(C(=O)O)cn3[C@@H]2C[C@@H]2F)C/C1=N/OCc1ccccc1 (stereo partly drawn)  < 8 ng/mL
3  CO/N=C1/CCN(c2c(F)cc3c(=O)c(C(=O)O)cn([C@@H]4C[C@@H]4F)c3c2OC)CC1N (stereo partly drawn)  < 8 ng/mL
